target: HT29/B5c (Homo sapiens); test: Durability of binding in cells, wash-out assay, HT29/B5c; assay type: cell-based; details: 2 h incubation, inhibitor washout, 30 min in culture
REPORTED_METRIC: IC50 (nM)
Reply with just the number (in nM).

Enquiry: Using the record for `CC(C)C=C(C#N)C(=O)N1CCC[C@@H]1COC[C@H](NC(=O)c1cc(Cl)ccc1Cl)C(=O)N[C@@H](Cc1ccccc1)B(O)O` , report its IC50.
Return: 82

----------
molecular target: PBMC/LMP7 (Homo sapiens); test: Proteasome-Glo inhibition of proteasome activity in cells, PBMC/LMP7; format: cell-based; settings: 2 h incubation at 37° C.
REPORTED_METRIC: pIC50
Worth noting: pIC50 values are minus log10 of concentrations stated in mol/L.

Enquiry: Using the record for CC(C)C=C(C#N)C(=O)N1CCC[C@@H]1CNC(=O)N[C@@H](Cc1ccccc1)B(O)O [Example 32] , report its pIC50.
Return: 6.96

Enquiry: Using the record for CC(C)C=C(C#N)C(=O)N1CCC(CCCC(=O)N[C@@H](Cc2ccccc2)B(O)O)CC1 [Example 29] , report its pIC50.
Return: 6.51

Enquiry: Using the record for CC(C)C=C(C#N)C(=O)N1CCCC[C@@H]1COC[C@H](NCC(F)(F)F)C(=O)N[C@@H](Cc1ccccc1)B(O)O [Example 25] , report its pIC50.
Return: 7.55

Enquiry: Using the record for C=CC(=O)N(C)c1cccc(C[C@H](NC(=O)c2cc(Cl)ccc2Cl)C(=O)N[C@@H](Cc2ccccc2)B(O)O)c1 [Example 15] , report its pIC50.
Return: 7.46

Enquiry: Using the record for N#CC(=CC1CC1)C(=O)N1CCC[C@@H]1COC[C@H](NCC(F)(F)F)C(=O)N[C@@H](Cc1ccccc1)B(O)O [Example 22] , report its pIC50.
Return: 7.41

Enquiry: Using the record for CC(=O)N[C@@H](CCCCNC(=O)C(C#N)=CC(C)C)C(=O)N[C@@H](Cc1ccccc1)B(O)O [Example 11] , report its pIC50.
Return: 6.41

Enquiry: Using the record for CC(C)C=C(C#N)C(=O)N1CCC[C@@H]1COC[C@H](NC(=O)c1cc(Cl)ccc1Cl)C(=O)N[C@@H](Cc1ccccc1)B(O)O [Example 14] , report its pIC50.
Return: 7.51

Enquiry: Using the record for CC(C)C=C(C#N)C(=O)NCCCC[C@H](NC(=O)c1cc(Cl)ccc1Cl)C(=O)N[C@@H](Cc1ccccc1)B(O)O [Example 8] , report its pIC50.
Return: 7.41

Enquiry: Using the record for CC(C)C=C(C#N)C(=O)NCCCC[C@H](NCC(F)(F)F)C(=O)N[C@@H](Cc1ccccc1)B(O)O [Example 13] , report its pIC50.
Return: 7.30

Enquiry: Using the record for CC(C)C=C(C#N)C(=O)N(C)c1cccc(C[C@H](NC(=O)c2cc(Cl)ccc2Cl)C(=O)N[C@@H](Cc2ccccc2)B(O)O)c1 [Example 20] , report its pIC50.
Return: 7.47

Enquiry: Using the record for CC(C)C=C(C#N)C(=O)N(C)c1cccc(C[C@H](NC(=O)c2cnccn2)C(=O)N[C@@H](Cc2ccccc2)B(O)O)c1 [Example 21] , report its pIC50.
Return: 7.14

----------
Exercise: for every item that follows, state its recorded pIC50.
biological target: immunoproteasome LMP7/B5i subunit (Homo sapiens, UniProt P28062); assay: Caliper-based proteasome enzymatic activity assay, LMP7; assay type: biochemical; settings: human recombinant immunoproteasome 0.3 nM, FAM-labeled peptide substrate 1 μM, rt 3 h; read-out: LMP7 subunit IC50
Worth noting: pIC50 values are minus log10 of concentrations stated in mol/L.

Enquiry: Using the record for `C[C@H]1CN(C(C)(C)C=C(C#N)C(=O)N2C3CCC2(COC(=O)N[C@@H](Cc2ccccc2)B(O)O)CC3)C[C@H](C)O1` , report its pIC50.
Return: 9.05

Enquiry: Using the record for `Cc1ccc(C[C@H](NC(=O)OC[C@H]2CCCN(C(=O)C(C#N)=CC(C)(C)C)C2)B(O)O)cc1` , report its pIC50.
Return: 8.66

Enquiry: Using the record for `COC(=O)N1CCN(C(C)(C)C=C(C#N)C(=O)N2CCCC[C@@H](OC(=O)N[C@@H](Cc3ccccc3)B(O)O)C2)CC1` , report its pIC50.
Return: 9.00

Enquiry: Using the record for `COC(=O)N1CCN(C(C)(C)C=C(C#N)C(=O)N2CCC[C@H](OC(=O)N[C@@H](Cc3ccccc3)B(O)O)C2)CC1` , report its pIC50.
Return: 8.64

Enquiry: Using the record for `CC(C)(C=C(C#N)C(=O)N1CCC[C@@H]1CNC(=O)N[C@@H](Cc1coc2ccccc12)B(O)O)N1CCOCC1` , report its pIC50.
Return: 8.46

Enquiry: Using the record for `CC(C)(C=C(C#N)C(=O)N1CCO[C@H](CC(=O)N[C@@H](Cc2ccccc2)B(O)O)C1)N1CCC(F)(F)C1` , report its pIC50.
Return: 8.00

Taken from patent US12312370B2.
